# assay protocol: Tolerability in CD1 mice: body weight and organ weight (Example 43)
# Format: in vivo
# condition context: 50 mg/kg s.c. twice per week for 6 weeks, end of study
Strand notation (5' to 3'): a small letter for the sugar, then the base; units joined by * are phosphorothioate-linked, units joined directly phosphodiester-linked; [ ] holds rarer units or linkages, { } end groups; capitals alone tell only the bases. e = 2'-O-(2-methoxyethyl) (MOE); [5mC] = 5-methylcytosine; d = 2'-deoxy (DNA)
Item-by-item account of Change in Spleen weight

Answered cases to consult:
INSERT INTO assay_data (substance, measured_value) VALUES
  ('ISIS 449707: 3-8-3, 4-8-4, 2-10-2, 3-10-3 or 4-10-4 MOE microwalk gapmer (Table 46) (antisense e[5mC]*eA*e[5mC]*eA*dG*dT*dT*dT*d[5mC]*dT*dG*dG*e[5mC]*eA*eG*eG)', '+63%'),
  ('ISIS 449710: 3-8-3, 4-8-4, 2-10-2, 3-10-3 or 4-10-4 MOE microwalk gapmer (Table 46) (antisense e[5mC]*eA*e[5mC]*dA*dG*dT*dT*dT*d[5mC]*dT*dG*dG*d[5mC]*eA*eG*eG)', '+43%'),
  ('ISIS 449708: 3-8-3, 4-8-4, 2-10-2, 3-10-3 or 4-10-4 MOE microwalk gapmer (Table 46) (antisense eA*e[5mC]*eA*dG*dT*dT*dT*d[5mC]*dT*dG*dG*e[5mC]*eA*eG)', '+66%');

Inquiry: Name the recorded Change in Spleen weight of the substance listed here: ISIS 449711: 3-8-3, 4-8-4, 2-10-2, 3-10-3 or 4-10-4 MOE microwalk gapmer (Table 46) (antisense eA*e[5mC]*dA*dG*dT*dT*dT*d[5mC]*dT*dG*dG*d[5mC]*eA*eG)
Reply text: +63%

Inquiry: Name the recorded Change in Spleen weight of the substance listed here: ISIS 449709: 3-8-3, 4-8-4, 2-10-2, 3-10-3 or 4-10-4 MOE microwalk gapmer (Table 46) (antisense eG*e[5mC]*eA*e[5mC]*dA*dG*dT*dT*dT*d[5mC]*dT*dG*dG*d[5mC]*eA*eG*eG*e[5mC])
Reply text: +62%

meta.source: patent US20230263822A1
